Tested on: CAKI-1
TEST DETAILS: NCI tumour cell line growth inhibition, 48 h
The source made the active and inactive calls. Cut-off read from the data, not from the text of the source: active = GI50 up to about 1.1 µM and inactive = higher.
In this exercise, the only acceptable responses are yes = active, no = inactive

> print(dat)
                                   molecule  category.label
1   CC(=N\N=C\c1ccccn1)/C(C)=N/N=C/c1ccccn1              no
2  COC1=C(C)C(=O)c2c(c(COC(N)=O)c3n2CC(OC(C)=O)C3OC(C)=O)C1=O (stereo unspecified)             yes
3  CC[C@]1(O)C(=O)OCc2c1cc1n(c2=O)Cc2cc3c(N)cccc3nc2-1              no
4  COc1ccc2c(c1)O[C@@H]1c3ccc(OC)cc3OC[C@H]21              no
5             CN(C)C(=S)SN(C)C(=O)Nc1ccccc1              no
6  O=C(O)c1c(Br)c(Br)c(Br)c(Br)c1C1c2ccc(O)cc2Oc2cc(O)ccc21              no
7  Cn1cnc([N+](=O)[O-])c1[Se]c1nc(N)nc2c1ncn2C1OC(CO)C(O)C1O (stereo unspecified)              no
8  O=C1N[C@H]2[C@H](O)[C@H](O)[C@@H](O)[C@H](O)[C@@H]2c2cc3c(c(O)c21)OCO3 [PANCRATISTATIN]             yes

Task: Hello, I am checking results. What call was entered for CC1=NN(c2ccccc2)C(=O)C1/N=N/c1ccc(Br)cc1C (stereo unspecified) ?
Output: no

Task: // return assay outcome for Cc1c(CCN2CCOCC2)c(N2CCOCC2)n2c(nc3ccccc32)c1C#N
Output: no

Task: Just curious, what result did COC(=O)C1(C(=O)OC)CC2=C(S(=O)(=O)c3ccccc3)C[C@H](S(=O)(=O)c3ccccc3)[C@H]2C1 get here?
Output: no
